Sourced from paper PMC12242667

Assay: Cytotoxicity of 6-OHDA against SH-SY5Y cells, MTT assay
Assay type: cell-based
Conditions: human, SH-SY5Y neuronal cells, 6-OHDA, second of five concentrations 25–125 μM, relative to control, read-out: cell viability
property.name: viability at 24 h (%)
Record the value in %, omitting the unit from your answer.

Which viability at 24 h value belongs to NCCc1cc(O)c(O)cc1O [6-OHDA, 6-hydroxydopamine] ?
78.5

---

Assay: Cytotoxicity of 6-OHDA against SH-SY5Y cells, MTT assay
Format: cell-based
Conditions: human, SH-SY5Y neuronal cells, 6-OHDA 125 μM (fifth of five concentrations 25–125 μM), relative to control, read-out: cell viability
property.name: viability at 24 h, 125 μM (%)
The response must be a number in % with no trailing unit.

viability at 24 h, 125 μM for NCCc1cc(O)c(O)cc1O [6-OHDA, 6-hydroxydopamine] ?
54.4
